Items are presented alongside their recorded z-score.
# procedure-text: PSAC antagonists in infected red cells, primary screen, cell-based, P. falciparum Indochina, OD700, 2 h (AID 1155);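 further: lysis reports solute entry through the parasite surface anion channel PSAC; channel blockers reduce lysis of infected cells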
# details: P. falciparum Indochina infected erythrocytes, osmotic lysis OD700; higher = more signal, called active from +8 up or from −8 down
Write no unit; give the number alone.

Here's what some known entries look like.
Given the entry CCCC[C@H]1OB(O)C[C@H]2C1=C(C)C[C@H]1C(=O)N(Cc3ccccc3)C(=O)[C@H]12 , report its measured z-score.
0.0503

Same thing, different molecule: CCOC(=O)C[C@H]1[C@H](OC(=O)Cc2ccc3c(c2)OCO3)[C@@H](NC(=O)c2ccc(-c3ccccc3)cc2)c2cc(OCCCO)ccc2N1C(=O)c1ccccc1
1.63

Same thing, different molecule: COCCOC(=O)N1C(=O)[C@@]2(c3cc(C#CC4(O)CCCCCC4)ccc31)[C@H](C(=O)N1CCCCCCC1)[C@H]1C(=O)O[C@H](c3ccccc3)[C@H](c3ccccc3)N1[C@@H]2c1ccccc1OCCO
1.53

Same thing, different molecule: COC(=O)[C@@]1(Cc2ccc(F)cc2)[C@H]2c3cc(C(=O)N4CCCC4)n(Cc4cccc5ccccc45)c3C[C@H]2CN1C(=O)c1ccccc1
1.03

Same thing, different molecule: CN(C)CCCCNC(=O)[C@H]1C[C@H]2C(=O)N[C@@H](Cc3ccccc3)C(=O)N2[C@H]1c1ccc(O)cc1
-0.63

Same thing, different molecule: CC(C)NC(=O)[C@@H]1c2ccccc2C(=O)N(Cc2ccccc2)[C@H]1c1ccc(CO)cc1
0.573

Now consider a different molecule.
Given the entry O=C1OCCC=C[C@H]2OC34C=CCN(Cc5ccccc5)C(=O)[C@H]3N(CCCO)C(=O)[C@@H]4C12 (some centres not stated) , report its measured z-score.
-0.306
